The measurements presented in this section are drawn from patent US20240123070A1.

Reported TCR Mut RLU/WT RLU values for a set of binders
Target: T1, KRAS G13D (G13D-RT6) peptide on HLA-DQA1*05:01 / HLA-DQB1*03:01 (human)
T1 chain: YKLVVVGAGDVGKSAL
Assay: NFAT-luciferase; Jurkat-NFAT-Luc with the TCR and Lovo-DPA0301:DPB0501 cells loaded with G13D-RT6; against wild-type B8.2.4 TCR; full-length, on cells
Conditions: chains Valpha:Vbeta

Answered examples (2):
INSERT INTO assay_data (binder, readout_kind, value_reported) VALUES
  ('B8.2.4 TCR mutant β95Q-T (protein) chain 1: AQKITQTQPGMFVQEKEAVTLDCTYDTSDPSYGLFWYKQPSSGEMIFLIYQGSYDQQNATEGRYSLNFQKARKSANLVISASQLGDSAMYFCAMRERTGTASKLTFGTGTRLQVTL chain 2: DVKVTQSSRYLVKRTGEKVFLECVQDMDHENMFWYRQDPGLGLRLIYFSYDVKMKEKGDIPEGYSVSREKKERFSLILESASTNQTSMYLCASSTTVPPQHFGDGTRLSIL', 'TCR Mut RLU/WT RLU', 0.59),
  ('B8.2.4 TCR mutant β95Q-H (protein) chain 1: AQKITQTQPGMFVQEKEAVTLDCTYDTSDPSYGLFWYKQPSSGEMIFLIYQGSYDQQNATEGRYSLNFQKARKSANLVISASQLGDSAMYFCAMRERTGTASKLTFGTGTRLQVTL chain 2: DVKVTQSSRYLVKRTGEKVFLECVQDMDHENMFWYRQDPGLGLRLIYFSYDVKMKEKGDIPEGYSVSREKKERFSLILESASTNQTSMYLCASSHTVPPQHFGDGTRLSIL', 'TCR Mut RLU/WT RLU', 0.68);

Documented TCR Mut RLU/WT RLU of B8.2.4 TCR mutant β95Q-I (protein) chain 1: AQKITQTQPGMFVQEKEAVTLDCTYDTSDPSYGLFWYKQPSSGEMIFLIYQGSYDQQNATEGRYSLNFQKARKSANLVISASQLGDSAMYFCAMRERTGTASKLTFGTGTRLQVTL chain 2: DVKVTQSSRYLVKRTGEKVFLECVQDMDHENMFWYRQDPGLGLRLIYFSYDVKMKEKGDIPEGYSVSREKKERFSLILESASTNQTSMYLCASSITVPPQHFGDGTRLSIL : 0.74
